- System: Porcine atria myofibrils (atrial myosin ATPase)
- measurementDescription: Myofibril ATPase assay, porcine atria myofibrils
- Type: biochemical
- conditionContext: porcine atria myofibrils; Y75 value (75% activity relative to no compound)
readout: Atrial EC25 (µM)
Numeric only. Scale: µM

The cases that follow already have their Atrial EC25 on record.
{"molecule": "Cc1nccc2[nH]c(=O)c(CC(=O)N[C@@H](C)c3ccc(C#N)nn3)c(C)c12 [compound 485]", "Atrial EC25 (µM)": 48.27}
{"molecule": "CCOc1nccc2[nH]c(=O)c(CC(=O)N[C@@H](C)c3ccc(F)cc3F)c(C(F)(F)F)c12 [compound 422]", "Atrial EC25 (µM)": 100.00}
{"molecule": "Cc1cnncc1[C@@H](C)NC(=O)Cc1c(C)c2c(C)nccc2[nH]c1=O [compound 480]", "Atrial EC25 (µM)": 100.00}

Read the next record carefully.
For reference, reported Atrial EC25 for Cc1nccc2[nH]c(=O)c(CC(=O)N[C@@H](C)c3ccc(F)cc3F)cc12 [compound 445] stands at 2.32

Origin of values: patent US12448369B2
